Each item that follows carries a reported inhibition.
- Tested on: Clostridium botulinum
- method.summary: Inhibition of botulinum neurotoxin serotype A light chain metalloprotease at 50 uM
Return type: number; implicit unit %.

input: Please give the measured inhibition for this compound: COC(=O)CCC(C)[C@H]1CC[C@H]2[C@@H]3[C@H](OC(C)=O)C[C@@H]4C[C@H](OCCNc5ccnc6cc(Cl)ccc56)CC[C@]4(C)[C@H]3CC(OC(C)=O)[C@]12C (some centres not stated)
output: 9

input: Please give the measured inhibition for this compound: COC(=O)CCC(C)[C@H]1CC[C@H]2[C@@H]3[C@H](OC(C)=O)C[C@@H]4C[C@H](OCCNCCNc5ccnc6cc(Cl)ccc56)CC[C@]4(C)[C@H]3CC(OC(C)=O)[C@]12C (some centres not stated)
output: 62

input: Please give the measured inhibition for this compound: "Nc1ccnc2cc(Cl)ccc12"
output: 12

----------
- Tested on: Clostridium botulinum
- method.summary: Inhibition of botulinum neurotoxin serotype A light chain metalloprotease at 50 uM
parameter: inhibition (%)
Return type: number; implicit unit %.

{"compound": "COC(=O)CCC(C)[C@H]1CC[C@H]2[C@@H]3[C@H](OC(C)=O)C[C@@H]4C[C@H](OC(C)=O)CC[C@]4(C)[C@H]3C[C@H](OC(C)=O)[C@]12C (some centres undefined)", "tested.on": "Clostridium botulinum", "inhibition [%]": 0}
{"compound": "COC(=O)CCC(C)[C@H]1CC[C@H]2[C@@H]3[C@H](OC(C)=O)C[C@@H]4C[C@@H](NCCNc5ccnc6cc(Cl)ccc56)CC[C@]4(C)[C@H]3C[C@H](OC(C)=O)[C@]12C (some centres undefined)", "tested.on": "Clostridium botulinum", "inhibition [%]": 80}
{"compound": "COC(=O)CCC(C)[C@H]1CC[C@H]2[C@@H]3[C@H](OC(C)=O)C[C@@H]4C[C@H](NCCNc5ccnc6cc(Cl)ccc56)CC[C@]4(C)[C@H]3C[C@H](OC(C)=O)[C@]12C (some centres undefined)", "tested.on": "Clostridium botulinum", "inhibition [%]": 90}

input: Can you look up inhibition on Clostridium botulinum for COC(=O)CCC(C)[C@H]1CC[C@H]2[C@@H]3[C@H](OC(C)=O)C[C@@H]4C[C@H](N)CC[C@]4(C)[C@H]3C[C@H](OC(C)=O)[C@]12C (some centres undefined) ?
output: 13
